# ASSAY NAME: Solubility of the API in media
# Assay type: physicochemical
# PARTICULARS: pH 4.5 acetate buffer, pH 4.508, aqueous buffer
REPORTED METRIC: solubility (µg/mL)
Please state the figure in µg/mL; there is no need to write the unit.

Q. # return recorded solubility for input COc1cc(Nc2nccc(Nc3cccnc3-c3ccccn3)n2)ccc1N1CCN(C)CC1.Cl [API]
A. 1010

###

# ASSAY NAME: Log D (pH 7.4) of the API
# Assay type: physicochemical
REPORTED METRIC: logD
A bare number is all that is needed in reply.

Q. # return recorded logD for input COc1cc(Nc2nccc(Nc3cccnc3-c3ccccn3)n2)ccc1N1CCN(C)CC1.Cl [API, hydrochloride]
A. 2.66

###

# ASSAY NAME: Solubility of the API in media
# Format: physicochemical
# PARTICULARS: water, pH 6.213, water
REPORTED METRIC: solubility (µg/mL)
Please state the figure in µg/mL; there is no need to write the unit.

Q. # return recorded solubility for input COc1cc(Nc2nccc(Nc3cccnc3-c3ccccn3)n2)ccc1N1CCN(C)CC1.Cl [API]
A. 1010
